# system-under-test: T1, human SIRP-α v2 D1 domain (human)
# T1 construct: also called human v2
# T1 sequence (chain, as listed by the source limits assumed): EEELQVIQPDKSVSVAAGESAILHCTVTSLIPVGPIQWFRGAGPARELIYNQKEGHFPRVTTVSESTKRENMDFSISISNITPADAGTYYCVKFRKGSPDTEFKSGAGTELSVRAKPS
# measurement-protocol: SPR, Langmuir fit
experimental-readout: koff (s⁻¹)
One number for each entry, in s⁻¹.

S28 (scFv, V domains shown, also called clone 28) VH: DVQLVESGGGVVRPGESLRLSCAASGFSFSSNAMSWVRQAPGKGLEWVAGISASGDTYYSGSMKGRFTISRDNSKNTLYLQMNSLTAEDTAVYYCARETWNHLFDYWGLGTLVTVSS VL: ALTQPASVSANPGETVKITCSGGSDSYYYGWHQQKSPGSAPVTVIYSDDQRPPDIPSRFSGSASGSTTTLTITGVRAEDEAVYYCGGYDYSTYTNTFGAGTTLTVL    1.47e-05

So what does the record say about koff for S60 (scFv, V domains shown, also called clone 60) VH: DVQLVDSGGGVVRPGESLRLSCAASGFTFSSYAMSWVRQAPGKGLEWLAGISAGGSDTYYIDSVKGRFTISRDNSKNSLYLQMNSLTAEDTAVYYCARETWNHLFDYWGLGTLVTVSS VL: ALTQPASVSANPGETVKITCSGGDYYSTYYGWYQQKSPGSAPVTVIHSDDKRPSDIPSRFSGSASGSAATLTITGVRVEDEAVYFCGAYDGRTYINTFGAGTTLTVL ?
0.000186
